Recorded LD50 at 168 h values for a group of molecules are listed next.
testSummary: Acute toxicity in rats, determined as LD50
condition: in vivo, po; rat, P.O., observed one week
Description: Acute Toxicity in Mice and in Rats -- Determined as LD50 c. More than 5 groups of male Wistar strain rats, each consisting of 15 animals weighing 110-150 g are used. The animals are given graded doses of the test compound and the standard compound orally and are observed for one week. The LD50 is calculated according to the method of Litchfield and Wilcoxon [J. Pharmacol. & Exper. Therap. 96, 99 (1949)].
Counter-ions that a name gives are not always drawn.
Number only, in mg/kg; omit the unit.

molecule | measurementType | experimentalResult
COc1ccc2c3c1O[C@H]1[C@@H](O)C=C[C@H]4[C@@H](C2)N(C)CC[C@@]341 [Codeine phosphate, reference compound] | LD50 at 168 h | 807

Now for the molecule whose LD50 at 168 h we want.
input: Reported LD50 at 168 h for C=CCOc1cc(Cl)ccc1C(=O)CCN1CCCCC1 [Hydrochloride] : what is it?
output: 1020

----------
testSummary: Acute toxicity in mice, determined as LD50
condition: in vivo, po; mouse, P.O., observed one week
Counter-ions that a name gives are not always drawn.
measurementType: LD50 at 168 h (mg/kg)
Number only, in mg/kg; omit the unit.

molecule | unitsLabel | experimentalResult
COc1ccc2c3c1O[C@H]1[C@@H](O)C=C[C@H]4[C@@H](C2)N(C)CC[C@@]341 [Codeine phosphate, reference compound] | mg/kg | 729

Now for the molecule whose LD50 at 168 h we want.
input: Reported LD50 at 168 h for C=CCOc1cc(Cl)ccc1C(=O)CCN1CCCCC1 [Hydrochloride] : what is it?
output: 240
